Values were extracted from patent US9375010B2.

# Assay name: log P by HPLC on reversed phase columns (EEC directive 79/831 Annex V.A8)
# Type: physicochemical
# Cond: method [a]: LC-MS at pH 2.7, 0.1% formic acid in water / acetonitrile gradient; Table 1 compounds
Provide the reported LogP of each item.

Exercise: Could you please provide reported LogP for CCCCC#Cc1cccc(CO/N=C(/c2ccccc2)c2nc(=O)on2C)n1 ? Thanks!
Key: 3.81^[a]

Exercise: Could you please provide reported LogP for Cn1oc(=O)nc1C(=NOCc1csc(C=CCc2ccccc2)n1)c1ccccc1 ? Thanks!
Key: 3.85^[a]

Exercise: Could you please provide reported LogP for Cn1oc(=O)nc1C(=NOCc1csc(C#CCc2ccccc2)n1)c1ccccc1 ? Thanks!
Key: 3.74^[a]

Exercise: Could you please provide reported LogP for Cn1oc(=O)nc1C(=NOCc1csc(C=CC2CCCCC2)n1)c1ccccc1 ? Thanks!
Key: 4.64^[a]

Exercise: Could you please provide reported LogP for Cn1oc(=O)nc1/C(=N\OCc1cccc(C#CC2CC2)n1)c1ccccc1 ? Thanks!
Key: 3.02^[a]

Exercise: Could you please provide reported LogP for Cn1c(C(=NOCc2csc(C#CC3CC3)n2)c2ccccc2)noc1=O ? Thanks!
Key: 3.76^[a]

Exercise: Could you please provide reported LogP for Cn1c(C(=NOCc2csc(C#CCc3ccccc3)n2)c2ccccc2)noc1=O ? Thanks!
Key: 4.37^[a]

Exercise: Could you please provide reported LogP for CCCCON=C(C)Nc1cccc(CO/N=C(/c2ccccc2)c2noc(=O)n2C)n1 ? Thanks!
Key: 3.69^[a]

Exercise: Could you please provide reported LogP for Cn1c(/C(=N\OCc2cccc(C#Cc3ccccc3)n2)c2ccccc2)noc1=O ? Thanks!
Key: 4.26^[a]

Exercise: Could you please provide reported LogP for Cn1c(/C(=N\OCc2csc(C#CC3CCCCC3)n2)c2ccccc2)noc1=O ? Thanks!
Key: 5.08^[a]

Exercise: Could you please provide reported LogP for CC(=NOCc1ccccc1)Nc1cccc(CO/N=C(/c2ccccc2)c2nc(=O)on2C)n1 ? Thanks!
Key: 3.09^[a]

Exercise: Could you please provide reported LogP for Cn1c(/C(=N\OCc2cccc(C#CC3CC3)n2)c2ccccc2)noc1=O ? Thanks!
Key: 3.65^[a]

Exercise: Could you please provide reported LogP for Cn1c(C(=NOCc2cccc(C=Cc3ccccc3)n2)c2ccccc2)noc1=O ? Thanks!
Key: 4.37^[a]

Exercise: Could you please provide reported LogP for Cn1oc(=O)nc1/C(=N\OCc1cccc(C#CC(C)(C)C)n1)c1ccccc1 ? Thanks!
Key: 3.72^[a]

Exercise: Could you please provide reported LogP for CC(=NO)Nc1cccc(CO/N=C(/c2ccccc2)c2nc(=O)on2C)n1 ? Thanks!
Key: 1.29^[a]

Exercise: Could you please provide reported LogP for Cn1c(C(=NOCc2cccc(C=CC3CC3)n2)c2ccccc2)noc1=O ? Thanks!
Key: 3.48^[a]

Exercise: Could you please provide reported LogP for CC(=NOCc1ccccc1)Nc1cccc(CO/N=C(/c2ccccc2)c2noc(=O)n2C)n1 ? Thanks!
Key: 3.73^[a]

Exercise: Could you please provide reported LogP for Cn1oc(=O)nc1/C(=N\OCc1csc(C#CC2CCCCC2)n1)c1ccccc1 ? Thanks!
Key: 4.44^[a]

Exercise: Could you please provide reported LogP for CCCCON=C(C)Nc1cccc(CO/N=C(/c2ccccc2)c2nc(=O)on2C)n1 ? Thanks!
Key: 3.35^[a]
